ASSAY_PROCEDURE: Cytotoxicity (MTT assay)
Assay type: cell-based, murine
REPORTED_CONDITIONS: mouse
READOUT_LABEL: IC50 at 24 h

Q. # query: IC50 at 24 h of entry COc1ccccc1C(=NO)c1cc(C)cc(-c2cc(C)ccn2)n1 [NPS4]
A. 279 µg/mL

###

ASSAY_PROCEDURE: Cytotoxicity (MTT assay)
Format: cell-based, murine
REPORTED_CONDITIONS: mouse, 3T3-L1 fibroblast cells; 3T3L-1 cells, 24 h; read-out: IC50 (cytotoxicity, MTT)
READOUT_LABEL: IC50 at 24 h (µg/mL)
Answers are plain numbers, in µg/mL.

Q. Give its IC50 at 24 h value. Item: COc1ccnc(-c2cc(OC)cc(C(=NO)c3ccccc3OC)n2)c1
A. 253

###

ASSAY_PROCEDURE: Cytotoxicity (MTT assay)
Type: cell-based, murine
REPORTED_CONDITIONS: mouse
READOUT_LABEL: IC50 at 48 h (µg/mL)
Give bare numbers, in µg/mL.

Q. # input compound: COc1ccccc1C(=NO)c1cc(C)cc(-c2cc(C)ccn2)n1 [NPS4] ; wanted: its IC50 at 48 h
A. 240

These entries and their values trace back to paper PMC11802822.
